TARGET_UNDER_TEST: Microtubule-associated protein tau (Homo sapiens) (UniProt P10636)
Sequence (P10636 561-689 P618L limits assumed): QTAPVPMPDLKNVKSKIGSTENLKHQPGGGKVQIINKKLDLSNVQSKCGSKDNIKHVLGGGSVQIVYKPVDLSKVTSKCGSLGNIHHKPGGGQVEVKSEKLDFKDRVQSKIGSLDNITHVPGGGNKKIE
EXPERIMENT_NOTES: qHTS for Inhibitors of Tau Fibril Formation, Thioflavin T Binding; note: nearly all actives have a fitted effect of over 55% in size
EXPERIMENTAL_CONDITIONS: recombinant tau K18 P301L (four-repeat tau fragment), heparin-induced fibrillization, ThT fluorescence; series mostly up to 57.4 µM
In all, about 270,000 compounds went through this assay and about 5,800 (2.1%) were called active. Inconclusive results (about 16%) are left out. Calls come from the whole dose curve; as a rule, active = well fitted inhibition curve with a large enough effect; inconclusive = small, poorly fitted or top-dose-only effect; inactive = flat fitted curve, though single readings scatter. Many of the other results were omitted from the sample, so actives are more common in it than they were.
Hello, when you answer, please use one of the following outcomes: active, inactive

Reference set (2 entries):
> print(dat)
                                   molecule                         target.under.test  classification
1  COc1ccccc1N1CCN(C2C(=O)c3ccccc3N2C(C)=O)CC1 (stereo not given)  Microtubule-associated protein tau (Homo sapiens) (UniProt P10636)        inactive
2  Cc1cccc(C(=O)Nc2nnc(Cc3c[nH]c4ccccc34)s2)c1  Microtubule-associated protein tau (Homo sapiens) (UniProt P10636)        inactive

INPUT: Hi team, can someone confirm the assay call for CC(C)OC(=O)c1c(NC(=O)c2ccco2)sc2c1CCCC2 ?
OUTPUT: inactive

INPUT: # outcome recorded in this test, key = Cc1ccc(S(=O)(=O)c2c(Nc3cccc(Cl)c3)sc(C(=O)c3ccc4c(c3)OCO4)c2N)cc1
OUTPUT: inactive

INPUT: Fill in: this test's call for CC(C)(C)c1nnc(NC(=O)C2c3ccccc3Oc3ccccc32)s1 is ___
OUTPUT: active
